The reported measurements were obtained from PubChem BioAssay (NCI).

Test system: HT29 colon
Assay: NCI tumour cell line growth inhibition, 48 h
The molecules listed here are annotated with their TGI.
result-type: TGI

[[record]]
molecule = "OC1/C(=C/c2ccccc2)CNC/C1=C\\c1ccccc1 (configuration not stated)"
assayed_system = "HT29 colon"
test_result = "> 100 µM"

[[record]]
molecule = "COc1ccc(S(=O)(=O)Nc2c(/C=C\\c3cc(OC)c(OC)c(OC)c3)ccc(OC)c2O)cc1OC"
assayed_system = "HT29 colon"
test_result = "> 100 µM"

[[record]]
molecule = "N#C[C@H](c1nc2ccccc2[nH]1)c1nc2ccccc2nc1Cl"
assayed_system = "HT29 colon"
test_result = "> 52.2 µM"

[[record]]
molecule = "COc1cc2oc(=O)cc(C)c2c(OC)c1OC"
assayed_system = "HT29 colon"
test_result = "> 100 µM"

[[record]]
molecule = "O=c1oc2ccc([N+](=O)[O-])cc2cc1-c1csc(-c2ccccc2)n1"
assayed_system = "HT29 colon"
test_result = "> 100 µM"

[[record]]
molecule = "CC1(C)OC(=O)C(c2ccsc2)C(=O)O1"
assayed_system = "HT29 colon"
test_result = "> 100 µM"

[[record]]
molecule = "O=P1(NCCCl)OCCC(OO)N1CCCl (configuration not stated)"
assayed_system = "HT29 colon"
test_result = "> 81.9 µM"


====

Tested on: SF-295 CNS
Assay: NCI tumour cell line growth inhibition, 48 h
result-type: TGI

[[record]]
compound = "FC(F)(F)c1ccc(N=NN2CCCC2)cc1"
test_result = "> 100 µM"

[[record]]
compound = "COc1ccc(OC/C(N=Cc2cccnc2)=N/NC(=O)c2ccncc2)cc1"
test_result = "> 100 µM"

[[record]]
compound = "O=C(c1ccccc1)C(c1ccccc1)C1(O)C(=O)Nc2ccc(Br)cc21 (configuration not stated)"
test_result = "> 100 µM"

[[record]]
compound = "COc1ccc2c(c1)[n+](=O)c(C(=O)C/C(=N\\NC(=O)C[N+](C)(C)C)C(=O)Nc1cc(Cl)ccc1Cl)c(C)n2O"
test_result = "> 100 µM"

[[record]]
compound = "CN1CCN2CCN(C)CCN(CC1)CC2"
test_result = "> 100 µM"

[[record]]
compound = "CC(=O)NC1C(OCc2ccccc2)OC(COC(=O)CCCCCCCCCCNC(=O)CCNc2ccc([N+](=O)[O-])c3[nH]c4ccc(O)cc4c(=O)c23)C(O)C1OC(C)C(=O)N[C@H](C(=O)N[C@H](CCC(=O)O)C(N)=O)C(C)C (some centres not stated)"
test_result = "> 100 µM"

[[record]]
compound = "O=Cc1ccc(Oc2c3ccccc3nc3ccccc23)cc1"
test_result = "55.4 µM"

[[record]]
compound = "O=c1[nH]nc(-c2ccccc2)c2[nH]c3c(c12)CCCc1ccccc1-3"
test_result = "57.5 µM"

[[record]]
compound = "N#C[C@H](c1nc2ccccc2[nH]1)c1nc2ccccc2nc1Cl"
test_result = "> 100 µM"

[[record]]
compound = "Oc1ccccc1/C=N/N1C(=S)N(c2ccccc2)C(=Nc2ccccc2)C1=Nc1ccccc1"
test_result = "23.2 µM"

[[record]]
compound = "C=CCOC1=C(OC(C)=O)C(C2COC(C)(C)O2)OC1=O (configuration not stated)"
test_result = "> 100 µM"

[[record]]
compound = "COc1cc(-c2nc3cc(Cl)c(Cl)cc3[nH]2)ccc1OCC(=O)N=Nc1c(O)[nH]c2ccccc12"
test_result = "2.71 µM"


====

System: SN12C renal
Assay: NCI tumour cell line growth inhibition, 48 h
result-type: TGI

[[record]]
compound = "COc1ccc(/C=C2/C(=O)C(c3ccccc3)N(c3ccccc3)C2=O)cc1OC (centres undefined)"
assayed_system = "SN12C renal"
test_result = "> 10 µM"

[[record]]
compound = "O=c1n(CC2CO2)c2ccccc2n1CC1CS1 (centres undefined)"
assayed_system = "SN12C renal"
test_result = "> 100 µM"

[[record]]
compound = "Cc1cnc2n(c1=O)Cc1ccccc1CO2"
assayed_system = "SN12C renal"
test_result = "71.3 µM"

[[record]]
compound = "Fc1cccc(C2SCc3nc4ccccc4n32)c1 (centres undefined)"
assayed_system = "SN12C renal"
test_result = "> 100 µM"


====

System: KM12 colon
Test: NCI tumour cell line growth inhibition, 48 h
The compounds listed here are annotated with their TGI.
result-type: TGI

[[record]]
compound = "NC(=O)NC(=O)c1cccc(C(=O)NC(N)=O)n1"
result_type = "TGI"
test_result = "> 100 µM"

[[record]]
compound = "CC1(C)CC(=O)C(/C=N/c2nc(-c3cccc([N+](=O)[O-])c3)cs2)=C(O)C1"
result_type = "TGI"
test_result = "> 100 µM"

[[record]]
compound = "COc1ccc(/C=C2\\NC(=S)N(CN3CCOCC3)C2=O)cc1"
result_type = "TGI"
test_result = "> 100 µM"

[[record]]
compound = "N#C[C@H](c1nc2ccccc2[nH]1)c1nc2ccccc2nc1Cl"
result_type = "TGI"
test_result = "17.1 µM"

[[record]]
compound = "O=C1CSC2(CC(/C=C/c3ccccc3[N+](=O)[O-])=NN2c2cccc(S(=O)(=O)O)c2)N1c1nc2ccccc2s1 (centres undefined)"
result_type = "TGI"
test_result = "27 µM"

[[record]]
compound = "CC(=O)O[C@H]1CC[C@@]2(C)[C@@H](CC[C@@H]3[C@@H]2CC(=O)[C@@]2(C)[C@H]3C[C@@H]3CC(C)=CC(=O)[C@@H]32)C1"
result_type = "TGI"
test_result = "> 100 µM"

[[record]]
compound = "O=C(O)COc1cccc2ccccc(=O)c12"
result_type = "TGI"
test_result = "> 100 µM"

[[record]]
compound = "COc1ccc(/C=C\\c2cc(OC)c(OC(C)=O)c(OC)c2)cc1"
result_type = "TGI"
test_result = "61.2 µM"

[[record]]
compound = "O=CN/C=C\\c1cc(O)ccc1O"
result_type = "TGI"
test_result = "> 100 µM"


====

The compounds listed here are annotated with their TGI.
Test system: OVCAR-8 ovarian
Assay: NCI tumour cell line growth inhibition, 48 h
result-type: TGI

[[record]]
compound = "[B]C(=O)NC(CC(C)C)C(=O)NC1c2ccsc2C(=O)C1O (stereo not drawn) (tested in a mixture with another compound)"
result_type = "TGI"
test_result = "> 100 µM"

[[record]]
compound = "COc1ccc(-c2cc(-c3ccncc3)nc(N)c2-c2ccc(F)cc2)cc1"
result_type = "TGI"
test_result = "> 100 µM"

[[record]]
compound = "O=C1N(c2ccccc2)N=C2c3ccncc3C3=NN(c4ccccc4)C(=O)C123 (stereo not drawn)"
result_type = "TGI"
test_result = "> 100 µM"

[[record]]
compound = "O=C1OCC(CN2CCC(n3c(=O)[nH]c4ccccc43)CC2)=C1c1ccccc1"
result_type = "TGI"
test_result = "31.6 µM"

[[record]]
compound = "O=[N+]([O-])C(=C(\\Cl)NCCO)/C(Cl)=C(/Cl)Br"
result_type = "TGI"
test_result = "7.31 µM"

[[record]]
compound = "O=c1c(-c2nc3ccccc3[nH]2)cc2ccccc2n1Cc1cn(Cc2ccc(F)cc2)nn1"
result_type = "TGI"
test_result = "> 100 µM"

[[record]]
compound = "COc1cccc(/C=N/[N-]C(N)=O)c1[O-].[Cu+2].c1ccncc1"
result_type = "TGI"
test_result = "86.1 µM"

[[record]]
compound = "Cn1c(=O)c2nc3sc4ccccc4c(=N)n3c2n(C)c1=O"
result_type = "TGI"
test_result = "> 100 µM"

[[record]]
compound = "CC1(C)CC(=O)C(/C=N/c2nc(-c3cccc([N+](=O)[O-])c3)cs2)=C(O)C1"
result_type = "TGI"
test_result = "96.2 µM"

[[record]]
compound = "O=C1CN2CCN(CC2)CC(=O)Nc2ccc(cc2)S(=O)(=O)c2ccc(cc2)NC(=O)CN2CCN(CC2)CC(=O)Nc2ccc(cc2)S(=O)(=O)c2ccc(cc2)N1"
result_type = "TGI"
test_result = "> 100 µM"

[[record]]
compound = "CN=C(NC#N)NCc1ccccc1"
result_type = "TGI"
test_result = "> 100 µM"

[[record]]
compound = "COc1ccc(C2=Nn3c(C)nnc3S/C2=C\\c2ccc(-c3ccc([N+](=O)[O-])cc3)o2)cc1"
result_type = "TGI"
test_result = "15.9 µM"

[[record]]
compound = "COc1ccc(-c2nn(C(=O)c3cc(OC)c(OC)c(OC)c3)c3cc(N)ccc23)cc1"
result_type = "TGI"
test_result = "7.28 µM"

[[record]]
compound = "COc1ccc(S(=O)(=O)Nc2c(/C=C\\c3cc(OC)c(OC)c(OC)c3)ccc(OC)c2O)cc1OC"
result_type = "TGI"
test_result = "> 100 µM"

[[record]]
compound = "O=C1C2Cc3ccccc3CN2C(=O)N1CCN1CCOCC1 (stereo not drawn)"
result_type = "TGI"
test_result = "> 100 µM"

[[record]]
compound = "COc1ccc(OC/C(N=Cc2cccnc2)=N/NC(=O)c2ccncc2)cc1"
result_type = "TGI"
test_result = "> 100 µM"

[[record]]
compound = "CC1(C)OC(=O)C(c2ccsc2)C(=O)O1"
result_type = "TGI"
test_result = "> 100 µM"

[[record]]
compound = "Nc1c(-c2ccc(-c3c(N)[n+]([O-])c4ccccc4[n+]3[O-])cc2)[n+]([O-])c2ccccc2[n+]1[O-]"
result_type = "TGI"
test_result = "> 100 µM"

[[record]]
compound = "COC(=O)c1cccc(COc2ccc([N+](=O)[O-])cc2Cl)c1"
result_type = "TGI"
test_result = "> 100 µM"

[[record]]
compound = "CSc1nnc2n1-c1ccccc1SCC2"
result_type = "TGI"
test_result = "> 100 µM"

[[record]]
compound = "O=C1COCCN1c1ccc(NCc2cn(Cc3ccc(F)cc3)c3ccccc23)cc1"
result_type = "TGI"
test_result = "> 86.8 µM"

[[record]]
compound = "NC1=C(O)/C(=N/NS(=O)(=O)c2ccccc2)C(c2cccc(Cl)c2)O1 (stereo not drawn)"
result_type = "TGI"
test_result = "> 67.8 µM"

[[record]]
compound = "CSc1c(C#N)c(=O)n(N)c2n[nH]c(C)c12"
result_type = "TGI"
test_result = "> 100 µM"

